Reported MBC values for a set of compounds
System: Staphylococcus aureus
Assay: Antibacterial activity against Staphylococcus aureus MCC 91731 after 16 to 20 hrs by CLSI standard method
Format: functional

{"columns": ["entrySmiles", "unitSymbol", "MBC"],
 "data": [
  ["CC(C)(COC(=O)CCS(=O)(=O)O)N(Cl)Cl", "µg/mL", 1],
  ["CC(C)(CS(=O)(=O)[O-])N(Cl)Cl.[Na+]", "µg/mL", 1],
  ["CCOP(=O)(O)CC(C)(C)N(Cl)Cl", "µg/mL", 2],
  ["CC(C)(CCCS(=O)(=O)O)N(Cl)Cl", "µg/mL", 8]
]}
